Provenance of the data: ChEMBL document CHEMBL2010660

tested on: HCT-116; assay: Cytotoxicity against human HCT116 cells after 5 days by MTS assay; assay type: functional, cell-based; details: HCT-116, 120 h
pIC50: −log10 of the molar value.
Decide by pIC50: equal to or exceeding 7 means y, less means n.

Completed entries (count: 5):
{"Compound": "Cn1cc(Nc2ncc3cnn([C@@H]4C[C@H]5C[C@H]5C4)c3n2)cc1C(=O)N1CCC[C@H]1CN1CCCC1", "Classification": "y"}
{"Compound": "COC[C@H]1CCCN1C(=O)c1cc(Nc2ncc3cnn([C@@H]4C[C@H]5C[C@H]5C4)c3n2)cn1C", "Classification": "y"}
{"Compound": "Cn1cc(Nc2ncc3cnn(C4C5CC6CC(C5)CC4C6)c3n2)cc1C(N)=O (stereo not drawn)", "Classification": "n"}
{"Compound": "Cn1cc(Nc2ncc3cnn(C4CCC5(CC5)C4)c3n2)cc1C(N)=O (stereo not drawn)", "Classification": "n"}
{"Compound": "Cn1cc(Nc2ncc3cnn([C@@H]4C[C@H]5C[C@H]5C4)c3n2)cc1C(=O)N1CCC[C@H]1C(N)=O", "Classification": "y"}

Could you verify whether the entry Cn1cc(Nc2ncc3cnn([C@@H]4C[C@H]5C[C@H]5C4)c3n2)cc1C(=O)N1CCC[C@H]1CO shows pIC50 of no less than 7?
y
